This collection of values is drawn from patent US12398154B2.

- target_of_assay: KRas G12S (Homo sapiens, UniProt P01116, G12S);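 also: TR-FRET displacement binding to KRas, read after one hour incubation at room temperature, IC50 from four-parameter fit of percent of control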
- Sequence (P01116 1-169 isoform P01116-2 G12S): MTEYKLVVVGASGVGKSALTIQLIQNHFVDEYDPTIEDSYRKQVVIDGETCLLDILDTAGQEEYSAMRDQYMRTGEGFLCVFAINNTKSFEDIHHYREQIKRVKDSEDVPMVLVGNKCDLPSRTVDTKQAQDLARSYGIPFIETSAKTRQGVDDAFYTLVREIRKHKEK
- test_details: biochemical
attribute_measured: log10(IC50) (log10 of the value in µM)
Annotation: log10 of IC50, µM basis.

Fc1c(-c2cccc3cccc(F)c23)ncc2c(N3CC(n4cncn4)C3)nc(OCC34CCCN3CCC4)nc12 [Example 253] | 0.56
O=C1CC2(CCCN(c3nc(OCC45CCCN4CCC5)nc4c(F)c(-c5cccc6cccc(CCF)c56)ncc34)C2)N1 (stereo not drawn) [Example 470] | -0.47
CCc1cccc2cccc(-c3ncc4c(N5CC6CC(O)C(C6)C5)nc(OCC56CCCN5CCC6)nc4c3F)c12 (stereo not drawn) [Example 290] | -0.83
O=C1CC(CNc2nc(OCC34CCCN3CCC4)nc3c(F)c(-c4cccc5cccc(Cl)c45)ncc23)CN1 (stereo not drawn) [Example 102] | -0.72

-- ask Looking for the measured log10(IC50) of NS(=O)(=O)CC1CCCN(c2nc(OCC34CCCN3CCC4)nc3c(F)c(-c4cccc5cccc(C(F)F)c45)ncc23)C1 (stereo not drawn) [Example 463] , can you help?
-- reply 0.15

-- ask Looking for the measured log10(IC50) of CC1CC(O)CCN(c2nc(OCC34CCCN3CCC4)nc3c(F)c(-c4cccc5cccc(F)c45)ncc23)C1 (stereo not drawn) [Example 116] , can you help?
-- reply 0.56

-- ask Looking for the measured log10(IC50) of CC1(O)CCCN(c2nc(OCC34CCCN3CCC4)nc3c(F)c(-c4cccc5cccc(F)c45)ncc23)C1 (stereo not drawn) [Example 17] , can you help?
-- reply -0.04

-- ask Looking for the measured log10(IC50) of O=CNC1CCCN(c2nc(OCC34CCCN3CCC4)nc3c(F)c(-c4cccc5cccc(F)c45)ncc23)C1 (stereo not drawn) [Example 242] , can you help?
-- reply 0.79
